- test-name: Urinary excretion of phenolic metabolites after intake of the GCPE nutraceutical
- condition-set: week 0, interval 6–9 h
// values below are reported Amount excreted in urine, 6-9 h
measured-attribute: Amount excreted in urine, 6-9 h (µmol)

{"columns": ["compound", "obs-value"],
 "data": [
  ["O=C(O)CCc1ccc(O)cc1 [DHCoA, 3-(4′-Hydroxyphenyl)propanoic acid]", 0.5],
  ["COc1cc(CCC(=O)OC2CC(O)(C(=O)O)CC(O)C2O)ccc1O (centres unmarked) [5-Dihydroferuloylquinic acid]", 0.027],
  ["O=C(O)CCc1ccc(O)c(O)c1 [DHCA, 3-(3′,4′-Dihydroxyphenyl)propanoic acid]", 2.3],
  ["COc1ccc(C=CC(=O)O)cc1OS(=O)(=O)O [iFA-3′-sulfate, 4′-Methoxycinnamic acid-3′-sulfate]", 0.24],
  ["O=C(O)/C=C/c1ccc(O)c(OS(=O)(=O)O)c1 [CA-3′-sulfate, 4′Hydroxycinnamic acid-3′-sulfate]", 0.8]
]}

---

- test-name: Urinary excretion of phenolic metabolites after intake of the GCPE nutraceutical
- condition-set: urine; week 8; mean ± SEM, n = 9
Recorded Cumulative urinary excretion, Total 0–24 h, one value per entry.
measured-attribute: Cumulative urinary excretion, Total 0–24 h (µmol)

{"columns": ["compound", "obs-value"],
 "data": [
  ["O=C(O)CNC(=O)c1ccc(O)cc1 [4′-Hydroxyhippuric acid]", 14],
  ["COc1cc(CCC(=O)O)ccc1O", 1.1],
  ["COc1ccc(CCC(=O)O)cc1O[C@@H]1O[C@H](C(=O)O)[C@@H](O)[C@H](O)[C@H]1O [DHiFA-3′-glucuronide]", 3.1]
]}

---

- test-name: Fecal excretion of phenolic metabolites after intake of the GCPE nutraceutical
- condition-set: feces; 0 h; week 8
measured-attribute: Amount of fecal metabolite excreted at 0 h (µmol/g)

{"columns": ["molecule", "obs-value"],
 "data": [
  ["O=C(O)CCc1ccc(O)cc1 [DHCoA, 3-(4′-Hydroxyphenyl)propanoic acid]", 0.006],
  ["COc1cc(C(=O)O)ccc1O [4-Hydroxy-3-methoxybenzoic acid]", 0.006],
  ["O=C(O)c1ccc(O)cc1 [4-Hydroxybenzoic acid]", 0.006]
]}

---

- test-name: Plasma pharmacokinetics of phenolic metabolites after intake of the GCPE nutraceutical (LC-MS-QToF)
- condition-set: human, oral, 300 mg hydroxycinnamic acids, Tmax (h) or Range, week 0, first peak where biphasic
# reported Tmax; entries follow
measured-attribute: Tmax

{"columns": ["compound", "obs-value"],
 "data": [
  ["O=C(O)c1ccc(O)cc1 [4-Hydroxybenzoic acid]", "7 h"],
  ["COc1cc(C(=O)O)ccc1O [4-Hydroxy-3-methoxybenzoic acid]", "7 h"],
  ["COc1ccc(CCC(=O)O)cc1O", "7 h"]
]}

---

- test-name: Urinary excretion of phenolic metabolites after intake of the GCPE nutraceutical
- condition-set: week 8, interval 0–3 h
Below, each of the compounds is paired with its reported Amount excreted in urine, 0- 3 h value.

{"columns": ["compound", "Amount excreted in urine, 0- 3 h / µmol"],
 "data": [
  ["O=C(/C=C/c1ccc(O)c(O)c1)O[C@@H]1C[C@@](O)(C(=O)O)C[C@@H](O)[C@@H]1O [5-Caffeoylquinic acid]", 0.18],
  ["COc1cc(CCC(=O)OC2C(O)CC(O)(C(=O)O)CC2O)ccc1O (stereo not drawn) [4-Dihydroferuloylquinic acid]", 0.015],
  ["COc1cc(/C=C/C(=O)O[C@@H]2C[C@@](O)(C(=O)O)C[C@@H](O)[C@@H]2O)ccc1O [3-Feruloylquinic acid]", 0.19],
  ["O=C(O)c1ccc(O)cc1 [4-Hydroxybenzoic acid]", 0.14],
  ["O=C(O)c1cccc(O)c1 [3-Hydroxybenzoic acid]", 0.1],
  ["COc1cc(C=CC(=O)O)ccc1OS(=O)(=O)O [FA-4′-sulfate, 3′-Methoxycinnamic acid-4′-sulfate]", 4],
  ["COc1cc(CC(=O)O)ccc1O [4′-Hydroxy-3′-methoxyphenylacetic acid]", 1.5],
  ["O=C(O)Cc1cccc(O)c1 [3′-Hydroxyphenylacetic acid]", 1],
  ["COc1cc(C=CC(=O)O)ccc1OC1OC(C(=O)O)C(O)C(O)C1O (stereo not drawn) [FA-4′-glucuronide, 3′-Methoxycinnamic acid-4′-glucuronide]", 0.6],
  ["O=C(O)Cc1ccc(O)c(O)c1 [3′,4′-Dihydroxyphenylacetic acid]", 0.15],
  ["O=C(O)CCc1ccc(O)c(O)c1 [DHCA, 3-(3′,4′-Dihydroxyphenyl)propanoic acid]", 1],
  ["O=C(CCc1ccc(O)c(O)c1)OC1C(O)CC(O)(C(=O)O)CC1O (stereo not drawn) [4-Dihydrocaffeoylquinic acid]", 0.008],
  ["COc1ccc(CCC(=O)O)cc1O [DHiFA]", 0.32],
  ["COc1ccc(C=CC(=O)O)cc1OS(=O)(=O)O [iFA-3′-sulfate, 4′-Methoxycinnamic acid-3′-sulfate]", 0.34],
  ["O=C(/C=C/c1ccc(O)c(O)c1)OC1[C@H](O)CC(O)(C(=O)O)C[C@H]1O (stereo partly drawn) [4-Caffeoylquinic acid]", 0.01],
  ["COc1ccc(CCC(=O)O)cc1O[C@@H]1O[C@H](C(=O)O)[C@@H](O)[C@H](O)[C@H]1O [DHiFA-3′-glucuronide]", 0.3],
  ["O=C(CCc1ccc(O)c(O)c1)OC1CC(O)(C(=O)O)CC(O)C1O (stereo not drawn) [3-Dihydrocaffeoylquinic acid]", 0.025],
  ["COc1cc(/C=C/C(=O)OC2[C@H](O)CC(O)(C(=O)O)C[C@H]2O)ccc1O (stereo partly drawn) [4-Feruloylquinic acid]", 0.21],
  ["COc1cc(/C=C/C(=O)O[C@@H]2C[C@@](O)(C(=O)O)C[C@@H](O)[C@@H]2O)ccc1O [5-Feruloylquinic acid]", 0.8],
  ["COc1cc(CCC(=O)O)ccc1OS(=O)(=O)O [DHFA-4′-sulfate]", 0.6],
  ["O=C(O)CCc1ccc(O)c(O[C@@H]2O[C@H](C(=O)O)[C@@H](O)[C@H](O)[C@H]2O)c1 [DHCA-3′-glucuronide]", 0.11]
]}

---

- test-name: Urinary excretion of phenolic metabolites after intake of the GCPE nutraceutical
- condition-set: week 0, interval 9–11 h
# label = Satisfied if Amount excreted in urine, 9-11 h >= 0.005 µmol else Not satisfied

{"columns": ["molecule", "assigned-class"],
 "data": [
  ["COc1ccc(CCC(=O)O)cc1OC [Dihydrodimethoxycinnamic acid, 3-(3′,4′-Dimethoxyphenyl)propanoic acid]", "Satisfied"],
  ["COc1cc(CCC(=O)OC2CC(O)(C(=O)O)CC(O)C2O)ccc1O (centres unmarked) [3-Dihydroferuloylquinic acid]", "Satisfied"],
  ["COc1cc(CCC(=O)O)ccc1OS(=O)(=O)O [DHFA-4′-sulfate]", "Satisfied"],
  ["O=C(/C=C/c1ccc(O)c(O)c1)O[C@@H]1C[C@@](O)(C(=O)O)C[C@@H](O)[C@@H]1O [5-Caffeoylquinic acid]", "Not satisfied"],
  ["O=C(/C=C/c1ccc(O)c(O)c1)O[C@@H]1C[C@](O)(C(=O)O)C[C@@H](O)[C@H]1O [3-Caffeoylquinic acid]", "Not satisfied"],
  ["O=C(O)CCc1ccc(OS(=O)(=O)O)c(O)c1 [DHCA-4′-sulfate]", "Satisfied"],
  ["O=C(O)c1ccc(O)cc1 [4-Hydroxybenzoic acid]", "Satisfied"]
]}

---

- test-name: Urinary excretion of phenolic metabolites after intake of the GCPE nutraceutical
- condition-set: week 8, interval 3–6 h
Rule: measured Amount excreted in urine, 3-6 h below 0.06 µmol gets YES; anything equal to or greater than 0.06 µmol gets NO.

{"columns": ["compound", "assigned-class"],
 "data": [
  ["COc1cc(CCC(=O)O)ccc1OS(=O)(=O)O [DHFA-4′-sulfate]", "NO"],
  ["O=C(/C=C/c1ccc(O)c(O)c1)O[C@@H]1C[C@](O)(C(=O)O)C[C@@H](O)[C@H]1O [3-Caffeoylquinic acid]", "YES"],
  ["O=C(O)Cc1ccc(O)c(O)c1 [3′,4′-Dihydroxyphenylacetic acid]", "YES"],
  ["O=C(O)CCc1ccc(OS(=O)(=O)O)c(O)c1 [DHCA-4′-sulfate]", "NO"],
  ["COc1ccc(CCC(=O)O)cc1OS(=O)(=O)O [DHiFA-3′-sulfate]", "NO"],
  ["COc1cc(CCC(=O)O)ccc1O[C@@H]1O[C@H](C(=O)O)[C@@H](O)[C@H](O)[C@H]1O [DHFA-4′-glucuronide]", "NO"]
]}
